# Test system: Chloroquine-sensitive (3D7) strain of P. falciparum
# procedure-details: Malaria SYBR Green I-based fluorescence (MSF) assay, 3D7 strain
# Type: cell-based
# condition-set: Plasmodium falciparum; P. falciparum 3D7, 72 hours incubation; read-out: IC50 against 3D7
measure-name: pIC50
pIC50 (log units): -log10 of the concentration in mol/L.

Task item: Find the measured pIC50 of COc1cc(/C=C/C(=O)OC[C@@H](OC(=O)/C=C/c2cc(OC)c(OC)c(OC)c2)c2cc(OC)c(OC)c(OC)c2)cc(OC)c1OC [Compound 57] and report it.
Reply: 5.20

Task item: Tell me measured pIC50 for Cc1ccc([C@@H](CNC(=O)/C=C/c2ccccc2)OC(=O)/C=C/c2ccccc2)cc1 [Compound 29] please.
Reply: 5.17

----------
Listing of entries alongside the reported IC50.
# System: Chloroquine-sensitive (3D7) strain of P. falciparum
# procedure-details: Malaria SYBR Green I-based fluorescence (MSF) assay, 3D7 strain
# Assay type: cell-based
# condition-set: Plasmodium falciparum; P. falciparum 3D7, 72 hours incubation; read-out: IC50 against 3D7

Here's what some known entries look like.
COc1ccc([C@@H](CNC(=O)/C=C/c2ccccc2)OC(=O)CCc2ccccc2)cc1OC [Compound 49] | > 10 µM
COc1ccccc1[C@H](CNC(=O)/C=C/c1ccccc1)OC(=O)/C=C/c1ccccc1 [Compound 10] | > 5 µM
O=C(/C=C/c1ccccc1)OC[C@H](OC(=O)/C=C/c1ccccc1)c1ccc2ccccc2c1 [Compound 54] | > 10 µM
COc1ccc([C@H](CNC(=O)CCc2ccccc2)OC(=O)CCc2ccccc2)cc1OC [Compound 44] | 5.86 µM
COc1cc([C@H](CNC(=O)/C=C/c2ccccc2)OC(=O)/C=C/c2ccccc2)cc(OC)c1OC [Compound 6] | > 5 µM

Task item: Please supply the value of reported IC50 for the item Cc1ccc([C@H](CNC(=O)/C=C/c2ccccc2)OC(=O)/C=C/c2ccccc2)cc1 [Compound 30]
Reply: 6.97 µM

Task item: Read the entry COc1cccc([C@H](COC(=O)/C=C/c2ccccc2)OC(=O)/C=C/c2ccccc2)c1OC [Compound 24] and write its reported IC50.
Reply: > 5 µM

Task item: Quote IC50 reported for COc1cccc([C@H](CNC(=O)/C=C/c2ccccc2)OC(=O)/C=C/c2ccccc2)c1OC [Compound 22] please.
Reply: > 5 µM

----------
# procedure-details: Cytotoxicity assay (MTT) in Vero cell line
# condition-set: monkey
measure-name: CC50 at 72 h (µM)
Respond numerically; units are µM and should not be typed.

Recorded CC50 at 72 h, per entry:
COc1ccc([C@@H](CNC(=O)/C=C/c2ccccc2O[Si](C)(C)C(C)(C)C)OC(=O)/C=C/c2ccccc2O[Si](C)(C)C(C)(C)C)cc1OC | 58.9
O=C(/C=C/c1ccccc1)NC[C@@H](OC(=O)/C=C/c1ccccc1)c1ccccc1 | 31.7
COc1ccc([C@@H](CNC(=O)c2ccccc2)OC(=O)c2ccccc2)cc1OC | 8.16

Task item: Give the measured CC50 at 72 h for COc1ccc([C@@H](CNC(=O)/C=C/c2cccc(O[Si](C)(C)C(C)(C)C)c2)OC(=O)/C=C/c2cccc(O[Si](C)(C)C(C)(C)C)c2)cc1OC
Reply: 52.6

----------
Quick list: log10(CC50 at 72 h) per entry.
# procedure-details: in vitro
# condition-set: monkey
The base-10 logarithm of CC50 at 72 h, taken with CC50 at 72 h in µM, is what appears here.

Worked examples, 4 compounds total:
COc1ccc([C@@H](COC(=O)/C=C/c2ccccc2)OC(=O)/C=C/c2ccccc2)cc1 | 1.53
COc1ccccc1[C@@H](CNC(=O)/C=C/c1ccccc1)OC(=O)/C=C/c1ccccc1 | 1.89
COc1ccc([C@H](COC(=O)/C=C/c2ccccc2)OC(=O)/C=C/c2ccccc2)cc1 | 1.37
COc1ccc([C@@H](CNC(=O)CCc2ccccc2)OC(=O)CCc2ccccc2)cc1OC | 1.59

Task item: Return value of log10(CC50 at 72 h) for input COc1cc(/C=C/C(=O)OC[C@@H](OC(=O)/C=C/c2cc(OC)c(OC)c(OC)c2)c2cc(OC)c(OC)c(OC)c2)cc(OC)c1OC , no commentary.
Reply: 1.68

Task item: For the compound O=C(/C=C/c1ccccc1)OC[C@@H](OC(=O)/C=C/c1ccccc1)c1ccccc1 , give its reported log10(CC50 at 72 h).
Reply: 1.59

Task item: Identify measured log10(CC50 at 72 h) corresponding to COc1cccc([C@H](CNC(=O)/C=C/c2ccccc2)OC(=O)/C=C/c2ccccc2)c1OC
Reply: 2.29

Task item: Supply reported log10(CC50 at 72 h) belonging to this compound: COc1ccc([C@H](CNC(=O)c2ccccc2)OC(=O)c2ccccc2)cc1OC
Reply: 2.02

Task item: Fill in reported log10(CC50 at 72 h) for this entry: O=C(/C=C/c1ccccc1)OC[C@@H](OC(=O)/C=C/c1ccccc1)c1ccc2c(c1)OCO2
Reply: 1.50

Task item: Consider the compound O=C(/C=C/c1ccccc1)OC[C@H](OC(=O)/C=C/c1ccccc1)c1ccc2c(c1)OCO2 and give its recorded log10(CC50 at 72 h).
Reply: 1.75

Task item: State its log10(CC50 at 72 h) for this compound: O=C(/C=C/c1ccccc1)NC[C@H](OC(=O)/C=C/c1ccccc1)c1ccccc1
Reply: 1.81

Task item: Read off the recorded log10(CC50 at 72 h) for COc1ccc([C@@H](COC(=O)/C=C/c2ccccc2)OC(=O)/C=C/c2ccccc2)cc1OC
Reply: 1.39

Task item: Report log10(CC50 at 72 h) for COc1ccccc1[C@H](CNC(=O)/C=C/c1ccccc1)OC(=O)/C=C/c1ccccc1
Reply: 2.07

Task item: Report log10(CC50 at 72 h) for COc1cc([C@H](COC(=O)/C=C/c2ccccc2)OC(=O)/C=C/c2ccccc2)cc(OC)c1OC
Reply: 2.09

Task item: Tell me its log10(CC50 at 72 h) given COc1cccc([C@@H](COC(=O)/C=C/c2ccccc2)OC(=O)/C=C/c2ccccc2)c1 as the entry.
Reply: 1.79

Task item: Report log10(CC50 at 72 h) for COc1ccc([C@@H](CNC(=O)/C=C/c2ccccc2)OC(=O)/C=C/c2ccccc2)cc1OC
Reply: 1.91
